ASSAYED_TARGET: T1, Human recombinant CD5L protein (Sino Biological, Catalog Number 10791-H08H) (human, UniProt O43866 20-347)
T1 construct: Bought protein; also called human CD5L; CD5L-His; not shown: 6xHIS-tag
T1 sequence (looked up): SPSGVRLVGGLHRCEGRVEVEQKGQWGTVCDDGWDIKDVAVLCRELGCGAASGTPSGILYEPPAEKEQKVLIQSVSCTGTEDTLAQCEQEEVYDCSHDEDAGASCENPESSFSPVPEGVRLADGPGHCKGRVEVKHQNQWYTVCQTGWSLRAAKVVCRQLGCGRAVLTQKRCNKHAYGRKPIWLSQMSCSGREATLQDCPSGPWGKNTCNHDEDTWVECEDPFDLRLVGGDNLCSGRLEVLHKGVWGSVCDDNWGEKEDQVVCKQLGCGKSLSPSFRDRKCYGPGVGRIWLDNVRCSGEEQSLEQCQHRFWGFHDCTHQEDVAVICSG
TEST_METHOD_NOTES: BLI (Octet RED96), antibody on Protein A biosensors, CD5L-His in solution, global fit
RECORDED_ENDPOINT: koff

**Query** Consider the binder CD5L-35Hu-3 (antibody, V domains shown, also called humanized CD5L-35Hu mAb (CD5L-35Hu-H2 + CD5L-35Hu-K1)) VH: QVQLVESGGGVVQPGRSLRLSCAASGIDLSDYYMTWVRQAPGKGLEYIGIIYASGNAYFASWAKGRFTISRDNSTNTVFLQMNSLRAEDTAVYYCARNIGGSSNLWGQGTLVTVSS VL: AIQLTQSPSSLSASVGDRVTITCQASERIYNNLAWYQQKPGKAPKLLFYSASTLASGVPSRFSGSGSGTDFTLTISSLQPEDFATYYCQCTGYGTTYGLVFGGGTKVEIK and give its measured koff.
**Result** < 1e-07 s⁻¹
